test system: A-431 human epithelial carcinoma cells; assay: in vitro proliferation inhibition of A-431 cells; type: cell-based; conditions: Homo sapiens, 96 h, 4 days with drug
assay-readout: IC50

Challenge: For Cn1c(CCCC(=O)O)nc2cc(N(CCCl)CCCl)ccc21 [bendamustine] , what is its reported IC50?
Response given: ~90 µM
